- Measurement Protocol: Pharmacokinetics of S3643, single iv or oral dose
- Assay type: in vivo, Sprague-Dawley rats
- Condition Parameters: male, Sprague-Dawley, rat, plasma, iv, 1 mg/kg

# Structure, Vd, L/kg
data = [
    ("COc1cccc(-c2n[nH]c(SCc3ccccn3)n2)c1OC", 0.337),
]

---

- Measurement Protocol: Pharmacokinetics of S3643, single iv or oral dose
- Type: in vivo, Sprague-Dawley rats
- Condition Parameters: male, Sprague-Dawley, rat, plasma, po, 30 mg/kg, AUClast, oral 30 mg/kg bw

# Structure, Unit Tag, AUC(0-t)
measured = [
    ("COc1cccc(-c2n[nH]c(SCc3ccccn3)n2)c1OC", "ng·h/mL", 80300),
]

---

- Measurement Protocol: Pharmacokinetics of S3643, single iv or oral dose
- Assay type: in vivo, Sprague-Dawley rats
- Condition Parameters: female, Sprague-Dawley, rat, plasma, iv, 1 mg/kg

# Molecule, clearance, mL/min/kg
rows = [
    ("COc1cccc(-c2n[nH]c(SCc3ccccn3)n2)c1OC [S3643]", 8.03),
]

---

- Test Target: CYP3A4 (Homo sapiens)
- Measurement Protocol: CYP inhibition, LC–MS/MS assay in human liver microsomes
- Condition Parameters: human, human liver microsomes

# Molecule, inhibition at 10 µM
data = [
    ("COc1cccc(-c2n[nH]c(SCc3ccccn3)n2)c1OC [S3643]", "< 50%"),
]

---

- Test Target: CYP3A4 (Homo sapiens, UniProt P08684)
- Sequence (P08684 whole entry): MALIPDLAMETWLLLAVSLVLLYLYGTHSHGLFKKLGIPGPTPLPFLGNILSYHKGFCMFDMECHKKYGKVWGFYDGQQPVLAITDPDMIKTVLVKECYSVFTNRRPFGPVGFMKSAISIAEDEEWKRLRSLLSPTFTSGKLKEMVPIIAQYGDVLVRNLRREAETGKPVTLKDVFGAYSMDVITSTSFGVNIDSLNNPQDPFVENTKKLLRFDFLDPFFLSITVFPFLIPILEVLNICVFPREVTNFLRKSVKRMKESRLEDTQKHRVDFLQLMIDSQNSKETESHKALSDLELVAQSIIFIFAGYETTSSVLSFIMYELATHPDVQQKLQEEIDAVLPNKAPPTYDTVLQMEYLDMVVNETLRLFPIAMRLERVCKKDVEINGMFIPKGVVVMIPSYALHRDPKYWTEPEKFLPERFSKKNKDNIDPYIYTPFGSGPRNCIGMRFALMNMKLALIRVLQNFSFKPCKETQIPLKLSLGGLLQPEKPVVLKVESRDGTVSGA
pIC50: −log10 of the molar value.

# Structure, pIC50
rows = [
    ("COc1cccc(-c2n[nH]c(SCc3ccccn3)n2)c1OC", "< 5.00"),
]

---

- Measurement Protocol: Pharmacokinetics of S3643, single iv or oral dose
- Format: in vivo, Sprague-Dawley rats
- Condition Parameters: female, Sprague-Dawley, rat, plasma, po, 10 mg/kg

# Structure, Tmax
records = [
    ("COc1cccc(-c2n[nH]c(SCc3ccccn3)n2)c1OC", "15 min"),
]

---

- Measurement Protocol: Pharmacokinetics of S3643, single iv or oral dose
- Format: in vivo, Sprague-Dawley rats
- Condition Parameters: male, Sprague-Dawley, rat, plasma, po

# Structure, half-life
records = [
    ("COc1cccc(-c2n[nH]c(SCc3ccccn3)n2)c1OC", "0.8 to 1.66 h"),
]

---

- Measurement Protocol: Pharmacokinetics of S3643, single iv or oral dose
- Format: in vivo, Sprague-Dawley rats
- Condition Parameters: female, Sprague-Dawley, rat, plasma, po, 10 mg/kg, AUClast, oral 10 mg/kg bw

# Structure, AUC(0-t), ng·h/mL
rows = [
    ("COc1cccc(-c2n[nH]c(SCc3ccccn3)n2)c1OC", 14200),
]

---

- Measurement Protocol: Pharmacokinetics of S3643, single iv or oral dose
- Assay type: in vivo, Sprague-Dawley rats
- Condition Parameters: male, Sprague-Dawley, rat, plasma, po, 100 mg/kg

# Structure, Tmax [min]
data = [
    ("COc1cccc(-c2n[nH]c(SCc3ccccn3)n2)c1OC", 18.6),
]

---

- Measurement Protocol: Pharmacokinetics of S3643, single iv or oral dose
- Format: in vivo, Sprague-Dawley rats
- Condition Parameters: female, Sprague-Dawley, rat, plasma, iv, 1 mg/kg

# Compound, Tmax, min
rows = [
    ("COc1cccc(-c2n[nH]c(SCc3ccccn3)n2)c1OC [S3643]", 1.8),
]
